- Test system: Neuregulin-1 EGF-like domain
- test: binders of neuregulin-1 EGF-like domain, primary screen, biochemical, small-molecule microarray, 635 nm fluorescence (AID 1081);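 note: binding of the protein to compounds printed on small-molecule microarray slides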
- assay-conditions: small-molecule microarray binding, higher = more signal

[
  {
    "structure-smiles-string": "[N-]=[N+]=Nc1ccccc1[C@@H]1OC(c2ccc(OCCCO)cc2)=N[C@]1(Cc1ccccc1)C(N)=O",
    "tested-target": "Neuregulin-1 EGF-like domain",
    "composite z-score": 0.884
  },
  {
    "structure-smiles-string": "COCCOC(=O)N1C(=O)[C@@]2(c3cc(C#CC4=CCCCC4)ccc31)[C@H](C(=O)N1CCc3cc(OC)c(OC)cc3C1)[C@H]1C(=O)O[C@H](c3ccccc3)[C@H](c3ccccc3)N1[C@@H]2c1ccc(O)cc1",
    "tested-target": "Neuregulin-1 EGF-like domain",
    "composite z-score": 1.25
  },
  {
    "structure-smiles-string": "C=CCOC(=O)[C@H]1[C@@H]2C(=O)O[C@@H](c3ccccc3)[C@@H](c3ccccc3)N2[C@@H](c2ccc(OCCOC(=O)[C@@H]3C[C@@H]4C(=O)N[C@@H](CC(C)C)C(=O)N4[C@@H]3c3ccc(O)cc3)cc2)[C@]12C(=O)Nc1ccc(I)cc12",
    "tested-target": "Neuregulin-1 EGF-like domain",
    "composite z-score": 1.29
  }
]

* * *

- tested-target: Streptavidin (Streptomyces avidinii) (UniProt P22629)
- Sequence (P22629 whole entry, looked up): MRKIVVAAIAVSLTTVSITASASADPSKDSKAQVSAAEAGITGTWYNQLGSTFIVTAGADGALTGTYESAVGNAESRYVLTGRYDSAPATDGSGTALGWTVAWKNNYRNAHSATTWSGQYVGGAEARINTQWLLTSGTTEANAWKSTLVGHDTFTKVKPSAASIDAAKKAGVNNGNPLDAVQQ
- test: streptavidin binders on small-molecule microarray, primary screen, artefact control for SMM compound annotation, biophysical, 635/667 nm fluorescence (AID 1147);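 note: signal reflects streptavidin binding to arrayed compounds as a control protein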
- assay-conditions: streptavidin binding, higher = more signal
parameter-measured: composite z-score

[
  {
    "compound": "CO[C@H]1O[C@H](CO)[C@@H](OC(=O)Nc2ccc(C(F)(F)F)cc2)[C@H](OC(=O)Nc2ccccc2-c2ccccc2)[C@@H]1OC(=O)Nc1ccccc1-c1ccccc1",
    "recorded-value": 1.02
  },
  {
    "compound": "CO[C@H]1O[C@H](CO)[C@@H](OC(=O)Nc2ccccc2)[C@@H]2OC(=O)[C@H](Cc3ccccc3)C/C=C/C[C@@H](Cc3ccccc3)C(=O)O[C@@H]12",
    "recorded-value": 0.564
  },
  {
    "compound": "CCCCN1CC=CC23O[C@@H]4C=CCOC(=O)[C@@H]4[C@H]2C(=O)N(C(CO)C(C)C)[C@@H]3C1=O (some centres not stated)",
    "recorded-value": -0.507
  },
  {
    "compound": "COCCOC(=O)N1C(=O)[C@@]2(c3cc(C#CC4=CCCCC4)ccc31)[C@H](c1ccccc1OCCO)N1[C@H](c3ccccc3)[C@H](c3ccccc3)OC(=O)[C@H]1[C@@H]2C(N)=O",
    "recorded-value": 0.771
  },
  {
    "compound": "CN(C)C(=O)[C@]1(Cc2ccccc2CN=[N+]=[N-])N=C(c2ccc(OCCCO)cc2)O[C@@H]1c1ccccc1N=[N+]=[N-]",
    "recorded-value": 1.34
  },
  {
    "compound": "C=CCC(OC(C)=O)[C@@H]1[C@@H](N(Cc2ccc(-c3ccccc3)cc2)C(=O)c2ccc(-c3ccccc3)cc2)c2cc(OCCCO)ccc2N1C(=O)c1ccc2ccccc2n1 (some centres not stated)",
    "recorded-value": 0.21
  },
  {
    "compound": "CCCCC(=C=CC[C@H](O)c1ccc(OCCO)cc1)C[C@H](O)c1ccccn1",
    "recorded-value": -0.319
  }
]

* * *

- System: PRMT1 (protein arginine N-methyltransferase 1)
- test: PRMT1 binders on small-molecule microarrays, primary screen, biochemical, small-molecule microarray, 635 nm fluorescence (AID 1088);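 note: binding of Prmt1 protein to compounds spotted on small-molecule microarray slides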
- assay-conditions: small-molecule microarray binding, higher = more signal
# composite z-score per entry
parameter-measured: composite z-score

[
  {
    "compound": "CC(C)C[C@H]1NC(=O)[C@@]23C(=O)N[C@@H](Cc4ccccc4)C2[C@H](C)[C@@]2(C)O[C@H]2C3/C=C/C/C=C\\CNC(=O)[C@@H]2CCCN2C1=O (stereo partly drawn)",
    "parameter-measured": "composite z-score",
    "recorded-value": 1.52
  },
  {
    "compound": "O=C1N(Cc2ccccc2)c2ccccc2[C@H]2OC(c3ccc(OCCCO)cc3)=N[C@@]12Cc1ccccc1",
    "parameter-measured": "composite z-score",
    "recorded-value": 1.54
  },
  {
    "compound": "N[C@@H](Cc1ccccc1)Cn1cc(C2(O)CCCCC2)nn1",
    "parameter-measured": "composite z-score",
    "recorded-value": -0.235
  },
  {
    "compound": "CC(C)C[C@H]1NC(=O)[C@@H](C)NC(=O)[C@@]23C(=O)N[C@@H](Cc4ccccc4)C2[C@H](C)[C@@]2(C)O[C@H]2C3/C=C/C/C=C\\CNC1=O (stereo partly drawn)",
    "parameter-measured": "composite z-score",
    "recorded-value": 0.938
  },
  {
    "compound": "COC(=O)[C@@]1(Cc2ccc(OC)cc2)[C@@H]2[C@@H](CC(=O)[C@H]2CC(=O)C(=O)N2CCCC2)CN1C(=O)c1ccccc1",
    "parameter-measured": "composite z-score",
    "recorded-value": 0.281
  },
  {
    "compound": "Cc1ccc(F)cc1S(=O)(=O)N[C@@H]1CCN(Cc2ccc3[nH]ccc3c2)C1",
    "parameter-measured": "composite z-score",
    "recorded-value": 0.556
  },
  {
    "compound": "COc1ccc([Si](C)(C)[C@H]2[C@H](CCn3cc([C@H](O)c4ccccc4)nn3)O[C@@]3(C(=O)N(C)c4c(Br)cc(C)cc43)[C@@H]2C)cc1",
    "parameter-measured": "composite z-score",
    "recorded-value": 0.661
  },
  {
    "compound": "COC(=O)C(CC#Cc1ccc2c(c1)[C@]1(C(=O)N2)[C@H](c2ccc(O)cc2)N2[C@H](c3ccccc3)[C@H](c3ccccc3)OC(=O)[C@H]2[C@@H]1C(=O)N1CCc2cc(OC)c(OC)cc2C1)C(=O)OC",
    "parameter-measured": "composite z-score",
    "recorded-value": 1.54
  },
  {
    "compound": "COCCOC(=O)N1C(=O)[C@@]2(c3cc(C#CCC(C(=O)OC)C(=O)OC)ccc31)[C@H](C(=O)N1CCCCCCC1)[C@H]1C(=O)O[C@H](c3ccccc3)[C@H](c3ccccc3)N1[C@@H]2c1ccccc1OCCO",
    "parameter-measured": "composite z-score",
    "recorded-value": 1.56
  },
  {
    "compound": "COCCOC(=O)N1C(=O)[C@@]2(c3cc(C#CC4=CCCCC4)ccc31)[C@H](c1ccc(OCCO)cc1)N1[C@H](c3ccccc3)[C@H](c3ccccc3)OC(=O)[C@H]1[C@@H]2C(=O)N1CCCCCCC1",
    "parameter-measured": "composite z-score",
    "recorded-value": 1.54
  },
  {
    "compound": "O=C1NC(=O)C2C1C=CC(C(O)c1cccc(O)c1)N2Nc1ccc(Cl)cc1Cl (stereo not drawn)",
    "parameter-measured": "composite z-score",
    "recorded-value": -1.24
  },
  {
    "compound": "C=C(CCCC)C(=O)CC[C@H](OC(=O)c1cccnc1)c1ccc(CO)o1",
    "parameter-measured": "composite z-score",
    "recorded-value": 1.55
  },
  {
    "compound": "C=CCOC(=O)[C@H]1[C@@H]2C(=O)O[C@@H](c3ccccc3)[C@@H](c3ccccc3)N2[C@@H](c2ccc(OCCOC(=O)[C@@H]3C[C@@H]4C(=O)N[C@@H](Cc5ccccc5)C(=O)N4[C@@H]3c3ccc(O)cc3)cc2)[C@]12C(=O)Nc1ccccc12",
    "parameter-measured": "composite z-score",
    "recorded-value": 1.55
  }
]
